These measurements were taken from patent US9023604.

Let's look at some binders and their measured percentage of cells within gate.
# subject-of-test: T1, CD4 cell surface receptor molecule on peripheral blood mononuclear cells (PBMCs) (human, UniProt P01730 26-458)
# T1 construct: whole, on cells; also called CD4 receptor molecule
# assay-overview: flow cytometry, PBMCs, live CD3+ T cells; column 'Fab monomer -> ST-PE': cells incubated with monomeric Fab, washed, then stained with Strep-Tactin PE; y axis CD4 Fab-multimer / Fab-monomer, x axis CD8
Your answer should be a plain number; it is taken to be in %.

Worked set:
- binder: "Mutant 13B8.2 Fab fragment with Phe at position 100 of the heavy chain mutated to Ala, heavy chain fused to One-STrEP-tag (Fab, V domains shown, also called CD4 mutant 1 (F100A); F100K-H) VH: QVQLKQSGPGLVQPSQSLSITCTVSGFSLTTFGVHWVRQSPGKGLEWLGVIWRSGITDYNVPFMSRLSITKDNSKSQVFFKLNSLQPDDTAIYYCAKNDPGTGAAYWGQGTLVTVSA VL: DIQMTQSPASLSASVGETVTFTCRASEMIYSYLAWYQQKQGKSPQLLVHDAKTLAEGVPSRFSGGGSGTQFSLKINTLQPEDFGTYYCQHHYGNPPTFGGGTKLEIKR"
  percentage of cells within gate / %: 19.9
- binder: "Mutant 13B8.2 Fab fragment with His at position 35 of the heavy chain mutated to Ala, heavy chain fused to One-STrEP-tag (Fab, V domains shown, also called CD4 mutant 3 (H35A); mutant 3) VH: QVQLKQSGPGLVQPSQSLSITCTVSGFSLTTFGVAWVRQSPGKGLEWLGVIWRSGITDYNVPFMSRLSITKDNSKSQVFFKLNSLQPDDTAIYYCAKNDPGTGFAYWGQGTLVTVSA VL: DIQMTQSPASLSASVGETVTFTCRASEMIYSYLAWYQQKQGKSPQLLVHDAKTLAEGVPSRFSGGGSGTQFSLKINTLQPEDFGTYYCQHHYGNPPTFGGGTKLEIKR"
  percentage of cells within gate / %: 0.007
- binder: "Mutant 13B8.2 Fab fragment with His at position 91 of the light chain mutated to Ala, heavy chain fused to One-STrEP-tag (Fab, V domains shown, also called CD4 mutant 4 (H91A); mutant 4) VH: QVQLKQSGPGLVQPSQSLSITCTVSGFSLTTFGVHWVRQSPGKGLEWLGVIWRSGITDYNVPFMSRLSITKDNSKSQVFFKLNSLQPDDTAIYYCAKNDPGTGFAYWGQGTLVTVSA VL: DIQMTQSPASLSASVGETVTFTCRASEMIYSYLAWYQQKQGKSPQLLVHDAKTLAEGVPSRFSGGGSGTQFSLKINTLQPEDFGTYYCQHAYGNPPTFGGGTKLEIKR"
  percentage of cells within gate / %: 0.0039

API: the following record is the query input.
# percentage of cells within gate of 13B8.2 Fab fragment (variable domains of murine anti-CD4 antibody 13B8.2, human CH1 gamma1 and human kappa constant domains), heavy chain fused to One-STrEP-tag (Fab, V domains shown, Expressed in the E. coli periplasm; Stained as a monomer or multimerized on Strep-Tactin PE; also called CD4 wt (13B8.2); 13B8.2 wildtype (wt) Fab fragment) VH: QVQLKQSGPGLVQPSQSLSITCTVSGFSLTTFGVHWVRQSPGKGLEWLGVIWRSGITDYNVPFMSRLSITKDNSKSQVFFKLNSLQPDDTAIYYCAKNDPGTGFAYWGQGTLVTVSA VL: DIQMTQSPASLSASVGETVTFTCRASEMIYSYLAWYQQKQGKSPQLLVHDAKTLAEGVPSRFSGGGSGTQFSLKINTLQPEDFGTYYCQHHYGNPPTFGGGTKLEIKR = 20
